TEST_SYSTEM: JAK2 (Homo sapiens)
Construct: made in house; host or cells: SF9 insect cells (baculovirus)
Sequence (O60674 812-1132): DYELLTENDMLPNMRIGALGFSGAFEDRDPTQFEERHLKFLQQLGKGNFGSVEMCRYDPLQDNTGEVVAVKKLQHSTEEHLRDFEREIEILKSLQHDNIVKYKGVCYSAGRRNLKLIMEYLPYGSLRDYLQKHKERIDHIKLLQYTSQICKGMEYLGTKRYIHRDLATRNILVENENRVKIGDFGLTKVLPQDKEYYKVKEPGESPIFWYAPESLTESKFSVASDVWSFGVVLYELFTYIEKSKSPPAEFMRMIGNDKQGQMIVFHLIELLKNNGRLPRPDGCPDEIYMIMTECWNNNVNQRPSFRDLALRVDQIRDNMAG
PROTOCOL_NOTES: JAK2 inhibition (Table 4)
Assay type: biochemical
MEASUREMENT_PARAMETERS: read-out: JAK2 Ki
MEASUREMENT_TYPE: Ki (nM)

Record excerpt, results attached:
CN1CCN(S(=O)(=O)NCCc2nc3cnc4[nH]ccc4c3n2C2CCCCC2)CC1	48.9
OCc1nc2cnc3[nH]ccc3c2n1C1CCN(Cc2cccnc2)CC1	5.19
N#CCCN1CCC(n2c(CC(=O)NC3CCCC3)nc3cnc4[nH]ccc4c32)CC1	16.1
CCn1cc(CN2CCC(n3c([C@@H](C)O)nc4cnc5[nH]ccc5c43)CC2)cn1	894
Cc1nc2cnc3[nH]ccc3c2n1C1CC2CCC1C2 (stereo not drawn) [Example 121a]	1.8

I = C[C@@H](O)c1nc2cnc3[nH]ccc3c2n1[C@H]1CCN(S(C)(=O)=O)C1
II = Cc1nc2cnc3[nH]ccc3c2n1[C@@H]1CC[C@@H](NC(C)CC#N)C1 (stereo partly drawn)
# return whichever of I and II has the smaller Ki Field: selected label. Fill in the label of the entry you choose.
II

P = O=C(CN1CCCCC1=O)N1CCC(n2cnc3cnc4[nH]ccc4c32)CC1
Q = c1cc2c(ncc3nnn(C4CCNCC4)c32)[nH]1
R = N#CCCN1CCC(n2c(CNC(=O)c3cccnc3)nc3cnc4[nH]ccc4c32)CC1
S = O=C(CN1CCC(n2cnc3cnc4[nH]ccc4c32)CC1)c1ccccc1
T = Cc1nc2cnc3[nH]ccc3c2n1C(C)C1CCCO1 (single isomer, unassigned) [Example 426]
Reorder: Ki, max to min. Note for the reader: the ranking is given by listing the labels in the order requested.
Q, P, T, R, S
(Q: 395 nM, P: 179 nM, T: 56.7 nM, R: 23.5 nM, S: 2.98 nM)

1 = CS(=O)(=O)N1CCC(n2nnc3cnc4[nH]ccc4c32)CC1
2 = CC(C)N1CCC(n2nnc3cnc4[nH]ccc4c32)CC1
# argmax over Ki for candidates 1 and 2 Field: selected label. Fill in the label of the entry you choose.
2
(2: 484 nM, 1: 7.84 nM)

I = CS(=O)(=O)NCc1nc2cnc3[nH]ccc3c2n1[C@H]1CCCOC1
II = C[C@@H](O)c1nc2cnc3[nH]ccc3c2n1C1(C)CCN(S(C)(=O)=O)CC1
III = O=C(C1CC1)N1CCC[C@@H](n2cnc3cnc4[nH]ccc4c32)C1
IV = CC(C)(C)OC(=O)N1CCCC[C@@H]1CN[C@H]1CC[C@H](n2cnc3cnc4[nH]ccc4c32)CC1
Rank the items in ascending order with respect to Ki. Note for the reader: the ranking is given by listing the labels in the order requested.
III, II, I, IV

This collection of values is drawn from patent US8461328B2.
